I'd appreciate it if you could supply lowest phenotypically active concentration values for the items below.
- System: HepG2-GM130-SQSTM1
- run-description: lowest phenotypically active concentration; higher = less potent
- reported-conditions: treatment time: 24 h
Give bare numbers, in µM.

As a guide, the following entries are already answered.
CC/C(=C(/c1ccccc1)c1ccc(OCCN(C)C)cc1)c1ccccc1	9
O=c1cc(N2CCOCC2)oc2c(-c3ccccc3)cccc12	9
COc1c(Nc2cc(C)[nH]n2)nc(Sc2ccc(S(=O)(=O)Cc3cccc([N+](=O)[O-])c3F)cc2F)nc1N1CCOCC1	1

Fill in lowest phenotypically active concentration for each of the 3 compounds listed.
1. CC(C)(C)c1cc(/C=C(\C#N)C(N)=S)cc(C(C)(C)C)c1O
2. COc1ccc(Cl)cc1NC(=O)Nc1cc(C)nc2ccccc12
3. O=c1cc(-c2ccccc2)oc2c(O)c(O)ccc12 [7,8-Dihydroxyflavone]

[9, 3, 9]

----------
- System: A549-TUBA1B-RELA
- run-description: phenotypically active (imaging signature differs from DMSO and reproducible) at any of 0.3-9 uM (binary (1 = active, 0 = inactive)); higher = active
- reported-conditions: treatment time: 24 h
The reply should name one outcome from t for active, f for inactive

Worked cases, answers included:
Cc1cc(Nc2cc(N3CCN(C)CC3)nc(Sc3ccc(NC(=O)C4CC4)cc3)n2)[nH]n1	t
CCCCCCOc1cc2c(cc1N(C)c1ncc(C(=O)O)cn1)C(C)(C)CCC2(C)C	f
Cc1cc2c(F)c(Oc3ncnn4cc(OC[C@@H](C)O)c(C)c34)ccc2[nH]1 [brivanib]	t
CC[C@@H](N)CNc1ccnc(-c2cc(-c3cnn(C)c3)ccc2O)n1	t
C[C@]12CC[C@@H]3c4ccc(O)cc4CC[C@H]3[C@@H]1CC[C@@H]2O [estradiol]	f
O=C(O)CCNC(=O)c1ccc(/N=N/c2ccc(O)c(C(=O)O)c2)cc1 [balsalazide]	f
COc1ccc2c(NC(=O)Nc3cccc(C(F)(F)F)n3)ccnc2c1	t
NCC(=O)Nc1ccc(-n2nc(C(F)(F)F)cc2-c2ccc3c(ccc4ccccc43)c2)cc1	t

Test call, this molecule: C[C@]12CC[C@@H]3c4ccc(OS(=O)(=O)O)cc4CC[C@H]3[C@@H]1CCC2=O [estrone sulfuric acid]
f

Test call, this molecule: CC(C)NCC(O)COc1ccc(CC(N)=O)cc1 (centres undefined) [atenolol-()]
f

Test call, this molecule: CNC(=O)COC(=O)NCCC1CCN(c2cccc(C)n2)CC1
f

----------
- Test system: WPMY1-TUBA1B-RELA
- run-description: phenotypically active (imaging signature differs from DMSO and reproducible) at any of 0.3-9 uM (binary (1 = active, 0 = inactive)); higher = active
- reported-conditions: treatment time: 24 h
Where a name gives a salt, the structure may show the parent alone.
The reply should name one outcome from y (active), n (inactive)

Nc1ncnc2c1ncn2[C@H]1O[C@@H](C(=O)N2CCN(CC(=O)Nc3cccc4c3CNC4=O)CC2)[C@H](O)[C@@H]1O	n
O=C1c2ccccc2-c2nc3nonc3nc21	y
CC[N@@+]1(C)[C@@H]2CC[C@H]1C[C@@H](OC(=O)[C@]1(c3ccccc3)CC[C@H](C(=O)O[C@H]3C[C@H]4CC[C@@H](C3)[N@+]4(C)CC)c3ccccc31)C2 [beta- Belladonnine dichloroethylate]	n

Test call, this molecule: CC(=O)N1CCN(C)CC1 [1-Acetyl-4-methylpiperazine hydrochloride]
n

Test call, this molecule: OC(CCN1CCCCC1)(c1ccccc1)C1CC2C=CC1C2 (stereo not drawn)
n

Test call, this molecule: O=C1NCCCc2c1oc1ccc(O)cc21
y

Test call, this molecule: CN(C)c1nc(N(C)C)nc(N(C)C)n1
n

Test call, this molecule: Cc1ccc(NC(=O)c2cccc(C(C)(C)C#N)c2)cc1Nc1ccc2ncn(C)c(=O)c2c1
n

----------
- Test system: A549-CANX-COX4
- run-description: phenotypically active (imaging signature differs from DMSO and reproducible) at any of 0.3-9 uM (binary (1 = active, 0 = inactive)); higher = active
- reported-conditions: treatment time: 24 h
The reply should name one outcome from label 1 = active, label 0 = inactive

Worked cases, answers included:
CCOC(=O)Nc1cc(-c2ccc(C)c(NS(C)(=O)=O)c2)nn2c(C)nnc12	label 1
C/C(=C/C(=O)Nc1ccccc1C(=O)O)c1ccc2ccccc2c1	label 0
CN[C@H]1CC[C@@H](c2ccc(Cl)c(Cl)c2)c2ccccc21	label 1
O=C(c1cccc(Cl)c1F)N1CCN(Cc2cccc(Nc3nccs3)n2)CC1	label 1

Now let's try a different one.
Test call, this compound: Clc1ccc(N/N=C(\c2ccccc2)c2ccccn2)nc1
label 1

----------
I'd appreciate it if you could supply lowest phenotypically active concentration values for the items below.
- Test system: HepG2-ACTB-RAB5A
- run-description: lowest phenotypically active concentration; higher = less potent
- reported-conditions: treatment time: 24 h
Where a name gives a salt, the structure may show the parent alone.
Numbers only, in µM.

As a guide, the following entries are already answered.
C[C@@H]1CN(CC(=O)Nc2ccc3c(c2)Cc2cccc(-c4cc(=O)cc(N5CCOCC5)o4)c2S3)C[C@H](C)O1	1
CCN1CCN(C(c2cccnc2)c2cc(Cl)c3cccnc3c2O)CC1 (stereo unspecified)	9
CCN(CC)CCCC(C)Nc1ccnc2cc(Cl)ccc12 (stereo unspecified)	3
CC(C)CNc1nc(-c2cccc3ncccc23)cn2c(-c3ccc(C(=O)NC4CC4)cc3)cnc12	1
COc1cc2c(cc1OC)-c1c/c(=N/c3c(C)cc(C)cc3C)n(C)c(=O)n1CC2 [Trequinsin hydrochloride]	9

Fill in lowest phenotypically active concentration for each of the 2 compounds listed.
1. COc1ccc2cc1Oc1ccc(cc1)C[C@H]1c3cc(c(OC)cc3CCN1C)Oc1c(OC)c(OC)cc3c1[C@H](C2)N(C)CC3
2. COc1ccc(CCc2nc3cc(-c4c(C)noc4C)ccc3n2C[C@H](C)N2CCOCC2)cc1Cl

1: 1; 2: 3

Fill in lowest phenotypically active concentration for each of the 3 compounds listed.
1. O=C(NCCCNc1nc(Nc2cccc(NC(=O)N3CCCC3)c2)ncc1I)c1cccs1
2. COc1cc2c(N3CCN(C(=O)Nc4ccc(OC(C)C)cc4)CC3)ncnc2cc1OCCCN1CCCCC1
3. N#Cc1cccc(-c2c[nH]c3ncnc(N4CCOCC4)c23)c1

3
9
3

----------
- Tested on: WPMY1-GM130-SQSTM1
- run-description: phenotypically active (imaging signature differs from DMSO and reproducible) at any of 0.3-9 uM (binary (1 = active, 0 = inactive)); higher = active
- reported-conditions: treatment time: 24 h
The reply should name one outcome from active, inactive

CC(=O)NC1=NN(C(C)=O)C(C)(c2ccccc2)S1 (centres undefined)	active

Test call, this compound: COc1cc2c(NC3CCN(C(C)C)CC3)nc(N3CCC(F)(F)CC3)nc2cc1OCCCN1CCCC1
active

----------
I'd appreciate it if you could supply phenotypically active values for the items below.
- System: WPMY1-CANX-COX4
- run-description: phenotypically active (imaging signature differs from DMSO and reproducible) at any of 0.3-9 uM (binary (1 = active, 0 = inactive)); higher = active
- reported-conditions: treatment time: 24 h
Structures can show the parent of a compound that is named as a salt.
Numbers only.

Cc1ncc(-c2ccnc(Nc3ccc(S(C)(=O)=O)cc3)n2)n1C(C)C	1
OCC(CO)N[C@H]1C[C@](O)(CO)[C@@H](O)[C@H](O)[C@H]1O [Voglibose]	0

Fill in phenotypically active for each of the 5 compounds listed.
1. COc1nc(N)nc2c1ncn2[C@@H]1O[C@H](CO)[C@@H](O)[C@@H]1O [Nelarabine]
2. COc1cc2nc(N3CCCN(C)CC3)nc(NC3CCN(Cc4ccccc4)CC3)c2cc1OC
3. Cc1occc(=O)c1O [3-hydroxy-2-methyl-4-pyrone]
4. Nc1nc(Cl)nc2c1ncn2[C@@H]1O[C@H](CO)[C@@H](O)[C@@H]1F [clofarabine]
5. COc1ccccc1OCCNCC(O)COc1cccc2[nH]c3ccccc3c12 (stereo not drawn) [Carvedilol]

1: 0; 2: 1; 3: 0; 4: 1; 5: 1

Fill in phenotypically active for each of the 5 compounds listed.
1. COc1cc(C[C@H]2C(=O)OC[C@@H]2Cc2ccc(OC)c(OC)c2)ccc1O [Arctigenin]
2. CNC(=O)c1ccccc1Sc1ccc2c(/C=C/c3ccccn3)n[nH]c2c1 [Axitinib]
3. CN1CC[C@H](c2c(O)cc(O)c3c(=O)cc(-c4ccccc4Cl)oc23)[C@H](O)C1 [Flavopiridol hydrochloride]
4. COc1ccc([C@@H]2Sc3ccccc3N(CCN(C)C)C(=O)[C@@H]2OC(C)=O)cc1 [diltiazem]
5. NCCCC(O)(P(=O)(O)O)P(=O)(O)O [alendronate]

0
1
1
0
0

Sample C[C@@H]1CCN(C(=O)CC#N)C[C@@H]1N(C)c1ncnc2[nH]ccc12 ; phenotypically active observed: 0

----------
- Tested on: A549-GM130-SQSTM1
- run-description: phenotypically active (imaging signature differs from DMSO and reproducible) at any of 0.3-9 uM (binary (1 = active, 0 = inactive)); higher = active
- reported-conditions: treatment time: 24 h
Structures can show the parent of a compound that is named as a salt.
recorded-endpoint: phenotypically active
Numbers only.

Fill in phenotypically active for each of the 2 molecules listed.
1. COc1cc2c(NC3CCN(C)CC3)nc(N3CCCN(C)CC3)nc2cc1OCCCN(C)C
2. CC(=O)N1CCN(C)CC1 [1-Acetyl-4-methylpiperazine hydrochloride]

1. 0
2. 0

Fill in phenotypically active for each of the 2 molecules listed.
1. COc1ccc([C@@H]2CNC(=O)C2)cc1OC1CCCC1 [(R)-(-)-Rolipram]
2. Fc1ccc(-c2c3cccc(C(F)(F)F)c3nn2Cc2ccc(F)cc2Cl)cc1

1. 0
2. 0
